- Tested on: CAKI-1 renal
- Test Description: NCI-60 one-dose screen, 48 h (100 = growth as untreated, 0 = no growth, -100 = all killed)
- Test Conditions: 10 µM unless noted
About 83,000 compounds went through this panel and 20% of them were active in at least one assay; those are over-represented in the sample as a whole.
Measured Endpoint: growth (%)
Give the value in % but do not write % after it.

Reference set (3 entries):
>>> measured("CCCCCCCCCCCCCCCCCCNC(=O)[C@H]1CSC(c2cccs2)N1 (stereo partly specified)")
-0.0289
>>> measured("O=C1/C(=C/c2ccccc2)Oc2ccc(O)c(I)c21")
78.6
>>> measured("N=C(N)c1ccc(-c2ccc(-c3cncc4ccccc34)s2)cc1F")
-87.5

growth recorded for this compound, "COc1ccc(-c2c(N)n[nH]c2-c2cc(OC)c(OC)c(OC)c2)cc1" , is 57

growth recorded for this compound, "COc1ccc(/C=C2\Oc3cc(OCCCN4CCCC4)ccc3C2=O)cc1" , is 91.6

growth recorded for this compound, "CCCCOc1ccc(/C=C2/SC(N3CCOCC3)=NC2=O)cc1OCC" , is 84.8

Reference source for all entries: PubChem BioAssay (NCI)
